- Test system: RARa:RXR (NR concentration 270 nM, RXRa partner concentration 90 nM)
- Assay Remarks: PBM binding z-score (relative to random genomic background probes); higher = stronger binding; sequences stand for … in GC…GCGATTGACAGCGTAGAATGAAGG
Measurement Label: PBM binding z-score
Please respond with just the number, no unit label.

Record TCATATAGGTAAAGGTGAAAGCCGAACGATATGA has RARa:RXR (NR concentration 270 nM, RXRa partner concentration 90 nM) PBM binding z-score equal to 1.44

TATACAGGGTCACAGGCCAGAGTACGAATGTCGA on RARa:RXR (NR concentration 270 nM, RXRa partner concentration 90 nM) gives PBM binding z-score = 5.21

Summary: AATACAGAGTCATCGTAGGCCAGAGTACGCACAG , RARa:RXR (NR concentration 270 nM, RXRa partner concentration 90 nM), PBM binding z-score = -0.0799

Summary: ACTAGCAAGCCAAGGGTCACTCAAGATTAGTCCG , RARa:RXR (NR concentration 270 nM, RXRa partner concentration 90 nM), PBM binding z-score = 3.79

# lookup: CGTCCAAGGTCAGAGAGGTCAGTCAATGCCGAGT on RARa:RXR (NR concentration 270 nM, RXRa partner concentration 90 nM), PBM binding z-score = 5.82

Entry TCTCGGAGGACACGAAGGTCAGAGCTTTCCAGAG , RARa:RXR (NR concentration 270 nM, RXRa partner concentration 90 nM) data, PBM binding z-score value: 2.05

Log: RARa:RXR (NR concentration 270 nM, RXRa partner concentration 90 nM), sequence TCGAGTAGGGTACCAATGGGGCATTCAGCTTTCT , PBM binding z-score = -0.262

Entry TTACCAAGGTGAGCTGGGGTCGTTGATCCAACTC ; assay system RARa:RXR (NR concentration 270 nM, RXRa partner concentration 90 nM); PBM binding z-score recorded at 2.72

Next:
Assay RARa:RXR (NR concentration 270 nM, RXRa partner concentration 90 nM), sample ATATGTAGGTTAAGGGTCATTCAAGTTGGTTCGC , PBM binding z-score read: 5.73

Field PBM binding z-score (system: RARa:RXR (NR concentration 270 nM, RXRa partner concentration 90 nM)) for entry TTACCAAGGTGAGCTGAGGTCCTTGATCCAACTC = 0.613

Bench note, RARa:RXR (NR concentration 270 nM, RXRa partner concentration 90 nM): TCTTGTAGATCAGGAGGTTAAGAAAGCTGGCCAA , PBM binding z-score reads 0.854

PBM binding z-score for RARa:RXR (NR concentration 270 nM, RXRa partner concentration 90 nM) with input TCTGCTAGCTCAGTTGGTCAGCTAACGAGCTGCC equals -0.998

Assay RARa:RXR (NR concentration 270 nM, RXRa partner concentration 90 nM), sample AATACAGGGTCACTAGGCCAGATTAGGTACGAAT , PBM binding z-score read: 4.17

Summary: CTAGCAAGGTGAACAAGGTCGTTGATTACTATTC , RARa:RXR (NR concentration 270 nM, RXRa partner concentration 90 nM), PBM binding z-score = 1.95

// sequence CGAAATAGGTCATTGACAGGACAGTGAATAGTAA , assay RARa:RXR (NR concentration 270 nM, RXRa partner concentration 90 nM), PBM binding z-score value: 4.06

The recorded PBM binding z-score with RARa:RXR (NR concentration 270 nM, RXRa partner concentration 90 nM) for ATCTCTAGGTAAGACTCAGTTCAGTGACGAACGC was 0.642

Entry ACTAGTTGGTCAGCTGAGCTCACACACAATTCGG , RARa:RXR (NR concentration 270 nM, RXRa partner concentration 90 nM) data, PBM binding z-score value: -0.357

Noted PBM binding z-score for GAGACTGGGGCAAAGCAGGTTACCATAAGGTTGG , tested on RARa:RXR (NR concentration 270 nM, RXRa partner concentration 90 nM): 1.26

// returns PBM binding z-score for TCTGCTACGTCAGTTGGTCAGCTAACGAGCTGCC with RARa:RXR (NR concentration 270 nM, RXRa partner concentration 90 nM); value = -0.819

The sequence AGTCAAAGTTGACTAGGTAACGTAAGATTCAGCT , tested on RARa:RXR (NR concentration 270 nM, RXRa partner concentration 90 nM), showed PBM binding z-score of 0.0496
